Test system: 422866-222-R5-J1-PDC spheroids with HUVEC/MSC, viability
Assay: Anticancer human tumor 422866-222-R5-J1-PDC patient-derived pancreatic adenocarcinoma cell line growth inhibition [GQUAD]
Conditions: second compound 0.1 µM; first compound 1 µM; active compounds read low
measurement_label: viability, T/C (%)
Give a bare numeral; the unit % is implied.

Guide cases for viability, T/C, answers given:
# compound, test_system, measurement_label, readout_number
data = [
    ("COc1ccc([C@@H](O)c2cc(-c3ncnc4cc(N5CCOCC5)ccc34)c(F)cc2Cl)nn1 + Cc1[nH]c2ccc(F)cc2c1-c1nc2c3cccnc3c3ncccc3c2[nH]1", "422866-222-R5-J1-PDC spheroids with HUVEC/MSC, viability", "viability, T/C", 60.2),
    ("CC(=O)O[C@H]1C(=O)[C@@]2(C)[C@H]([C@H](OC(=O)c3ccccc3)[C@]3(O)C[C@H](OC(=O)[C@H](O)[C@@H](NC(=O)c4ccccc4)c4ccccc4)C(C)=C1C3(C)C)[C@]1(OC(C)=O)CO[C@@H]1C[C@@H]2O + Cc1[nH]c2ccc(F)cc2c1-c1nc2c3cccnc3c3ncccc3c2[nH]1", "422866-222-R5-J1-PDC spheroids with HUVEC/MSC, viability", "viability, T/C", 48.5),
]

// next entry
Test item COc1cc(C2c3cc4c(cc3C(OC3OC5COC(C)OC5C(O)C3O)C3COC(=O)C23)OCO4)cc(OC)c1O (stereo not drawn) + Cc1cnc(CNC(=O)c2c(=O)c3ccc(N4CCCN(C)CC4)nc3n3c2sc2ccccc23)cn1 ; 422866-222-R5-J1-PDC spheroids with HUVEC/MSC, viability; reported viability, T/C was 66.8

###

Tested on: 422866-222-R5-J1-PDC spheroids with HUVEC/MSC, viability
Test: Anticancer human tumor 422866-222-R5-J1-PDC cell line growth inhibition [GQUAD];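 further: spheroids exposed to compounds for seven days before reading; percent viability relative to DMSO vehicle control taken as 100%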
Conditions: second compound 0.316 µM; first compound 3.16 µM; active compounds read low
Description: DNA G-quadruplex Stabilizer Agents in Combinations in Complex Spheroids A high-throughput screen of multi-cell type tumor spheroids was designed to identify active combinations of DNA G-quadruplex stabilizer agents and targeted small molecules. […] Compounds. […] If the clinical Cmax for an agent had not been determined, the highest concentration tested was 10 microM. […]
measurement_label: viability, T/C (%)
Give a bare numeral; the unit % is implied.

# compound, readout_number
data = [
    ("Cc1cccc(N(C)C(=O)C2C(O)CCN2c2nc(C)cc(C(F)(F)F)c2C#N)c1 (stereo unspecified) + CN(C)c1ccc(Nc2c3ccc(NC(=O)CCN4CCCC4)cc3nc3cc(NC(=O)CCN4CCCC4)ccc23)cc1", 103),
    ("O=C(NO)c1cnc(N2CCN(S(=O)(=O)c3ccc4ccccc4c3)CC2)nc1 + CN(C)c1ccc(Nc2c3ccc(NC(=O)CCN4CCCC4)cc3nc3cc(NC(=O)CCN4CCCC4)ccc23)cc1", 37.1),
    ("O=C(NO)c1cnc(N2CCN(S(=O)(=O)c3ccc4ccccc4c3)CC2)nc1 + Cc1[nH]c2ccc(F)cc2c1-c1nc2c3cccnc3c3ncccc3c2[nH]1", 63.2),
    ("COc1cc(C2c3cc4c(cc3C(OC3OC5COC(C)OC5C(O)C3O)C3COC(=O)C23)OCO4)cc(OC)c1O (stereo unspecified) + CN(C)c1ccc(Nc2c3ccc(NC(=O)CCN4CCCC4)cc3nc3cc(NC(=O)CCN4CCCC4)ccc23)cc1", 50.7),
    ("C=CC(=O)N1CCN(c2nc(=O)n(-c3c(C)ccnc3C(C)C)c3nc(-c4c(O)cccc4F)c(F)cc23)C(C)C1 (stereo unspecified) + Cc1[nH]c2ccc(F)cc2c1-c1nc2c3cccnc3c3ncccc3c2[nH]1", 30.1),
]

Lab note: C=CC(=O)N1CCN(c2nc(=O)n(-c3c(C)ccnc3C(C)C)c3nc(-c4c(O)cccc4F)c(F)cc23)C(C)C1 (stereo unspecified) + CN(C)c1ccc(Nc2c3ccc(NC(=O)CCN4CCCC4)cc3nc3cc(NC(=O)CCN4CCCC4)ccc23)cc1 gave viability, T/C of 30.7

Lab note: Nc1ccn(C2OC(CO)C(O)C2(F)F)c(=O)n1 (stereo unspecified) + CN(C)c1ccc(Nc2c3ccc(NC(=O)CCN4CCCC4)cc3nc3cc(NC(=O)CCN4CCCC4)ccc23)cc1 gave viability, T/C of 48.2

Lab note: C#Cc1c(F)ccc2cc(O)cc(-c3ncc4c(N5CC6CCC(C5)N6)nc(OCC56CCCN5CC(F)C6)nc4c3F)c12 (stereo unspecified) + Cc1cnc(CNC(=O)c2c(=O)c3ccc(N4CCCN(C)CC4)nc3n3c2sc2ccccc23)cn1 gave viability, T/C of 49.8

###

Measured viability, T/C, listed per entry for reference.
Test system: 422866-222-R5-J1-PDC spheroids with HUVEC/MSC, viability
Experiment: Anticancer human tumor 422866-222-R5-J1-PDC cell line growth inhibition [GQUAD];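 further: spheroids exposed to compounds for seven days before reading; percent viability relative to DMSO vehicle control taken as 100%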
Settings: second compound 0.316 µM; first compound 3.16 µM; active compounds read low
Give a bare numeral; the unit % is implied.

# compound, readout_number
rows = [
    ("CC1COCCN1c1cc(C2(O)CC3CCC(C2)O3)c2cnn(-c3ccn[nH]3)c2n1 (stereo not given) + Cc1cnc(CNC(=O)c2c(=O)c3ccc(N4CCCN(C)CC4)nc3n3c2sc2ccccc23)cn1", 85.5),
    ("O=c1[nH]cc(F)c(=O)[nH]1 + Cc1cnc(CNC(=O)c2c(=O)c3ccc(N4CCCN(C)CC4)nc3n3c2sc2ccccc23)cn1", 89.7),
]

Lab note: COc1ncnc(C2CC2)c1-c1ncc2cnn(Cc3ccc(-c4nc(C(F)(F)F)cn4C(C)C)cc3)c2n1 + Cc1cnc(CNC(=O)c2c(=O)c3ccc(N4CCCN(C)CC4)nc3n3c2sc2ccccc23)cn1 gave viability, T/C of 93.2

Lab note: CC1COCCN1c1cc(-c2ccnn2C)c2ccnc(-c3ccn[nH]3)c2n1 (stereo not given) + CN(C)c1ccc(Nc2c3ccc(NC(=O)CCN4CCCC4)cc3nc3cc(NC(=O)CCN4CCCC4)ccc23)cc1 gave viability, T/C of 86.9

Lab note: C=CCn1c(=O)c2cnc(Nc3ccc(N4CCN(C)CC4)cc3)nc2n1-c1cccc(C(C)(C)O)n1 + Cc1cnc(CNC(=O)c2c(=O)c3ccc(N4CCCN(C)CC4)nc3n3c2sc2ccccc23)cn1 gave viability, T/C of 43.6

###

Measured viability, T/C, listed per entry for reference.
System: 422866-222-R5-J1-PDC spheroids with HUVEC/MSC, viability
Test: Anticancer human tumor 422866-222-R5-J1-PDC cell line growth inhibition [GQUAD];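 further: spheroids exposed to compounds for seven days before reading; percent viability relative to DMSO vehicle control taken as 100%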
Conditions: second compound 3.16 µM; first compound 1 µM; active compounds read low
Give a bare numeral; the unit % is implied.

Guide cases for viability, T/C, answers given:
# molecule, test_system, viability, T/C (%)
measured = [
    ("COc1cc(C2c3cc4c(cc3C(OC3OC5COC(C)OC5C(O)C3O)C3COC(=O)C23)OCO4)cc(OC)c1O (stereo unspecified) + Cc1cnc(CNC(=O)c2c(=O)c3ccc(N4CCCN(C)CC4)nc3n3c2sc2ccccc23)cn1", "422866-222-R5-J1-PDC spheroids with HUVEC/MSC, viability", 85.5),
    ("CC1COCCN1c1cc(-c2ccnn2C)c2ccnc(-c3ccn[nH]3)c2n1 (stereo unspecified) + Cc1cnc(CNC(=O)c2c(=O)c3ccc(N4CCCN(C)CC4)nc3n3c2sc2ccccc23)cn1", "422866-222-R5-J1-PDC spheroids with HUVEC/MSC, viability", 59),
    ("O=C(c1cc(Cc2n[nH]c(=O)c3ccccc23)ccc1F)N1CCN(C(=O)C2CC2)CC1 + CN(C)c1ccc(Nc2c3ccc(NC(=O)CCN4CCCC4)cc3nc3cc(NC(=O)CCN4CCCC4)ccc23)cc1", "422866-222-R5-J1-PDC spheroids with HUVEC/MSC, viability", 85.7),
    ("COc1cc(C2c3cc4c(cc3C(OC3OC5COC(C)OC5C(O)C3O)C3COC(=O)C23)OCO4)cc(OC)c1O (stereo unspecified) + Cc1[nH]c2ccc(F)cc2c1-c1nc2c3cccnc3c3ncccc3c2[nH]1", "422866-222-R5-J1-PDC spheroids with HUVEC/MSC, viability", 48.6),
    ("CC(C)(O)C1CCC(Nc2ccc3ncc(-c4cccc(C(F)(F)F)c4)n3n2)CC1 (stereo unspecified) + Cc1[nH]c2ccc(F)cc2c1-c1nc2c3cccnc3c3ncccc3c2[nH]1", "422866-222-R5-J1-PDC spheroids with HUVEC/MSC, viability", 39.3),
]

// next entry
Lab note: Nc1ccn(C2OC(CO)C(O)C2(F)F)c(=O)n1 (stereo unspecified) + Cc1[nH]c2ccc(F)cc2c1-c1nc2c3cccnc3c3ncccc3c2[nH]1 gave viability, T/C of 42.3

###

Test system: 422866-222-R5-J1-PDC spheroids with HUVEC/MSC, viability
Assay: Anticancer human tumor 422866-222-R5-J1-PDC cell line growth inhibition [GQUAD];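 further: spheroids exposed to compounds for seven days before reading; percent viability relative to DMSO vehicle control taken as 100%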
Conditions: second compound 0.316 µM; first compound 3.16 µM; active compounds read low
measurement_label: viability, T/C (%)
Give a bare numeral; the unit % is implied.

Guide cases for viability, T/C, answers given:
# compound, unit_abbrev, viability, T/C
rows = [
    ("COc1ccc([C@@H](O)c2cc(-c3ncnc4cc(N5CCOCC5)ccc34)c(F)cc2Cl)nn1 + CN(C)c1ccc(Nc2c3ccc(NC(=O)CCN4CCCC4)cc3nc3cc(NC(=O)CCN4CCCC4)ccc23)cc1", "%", 43.4),
    ("O=C(c1cc(Cc2n[nH]c(=O)c3ccccc23)ccc1F)N1CCN(C(=O)C2CC2)CC1 + CN(C)c1ccc(Nc2c3ccc(NC(=O)CCN4CCCC4)cc3nc3cc(NC(=O)CCN4CCCC4)ccc23)cc1", "%", 79.8),
    ("C=CC(=O)N1CCN(c2nc(=O)n(-c3c(C)ccnc3C(C)C)c3nc(-c4c(O)cccc4F)c(F)cc23)C(C)C1 (stereo not given) + Cc1cnc(CNC(=O)c2c(=O)c3ccc(N4CCCN(C)CC4)nc3n3c2sc2ccccc23)cn1", "%", 34),
    ("CC(C)n1c(=O)n(C)c2cnc3cc(F)c(-c4ccc(OCCCN5CCCCC5)nc4)cc3c21 + Cc1[nH]c2ccc(F)cc2c1-c1nc2c3cccnc3c3ncccc3c2[nH]1", "%", 92.2),
    ("COc1cccc2c1C(=O)c1c(O)c3c(c(O)c1C2=O)CC(O)(C(=O)CO)CC3OC1CC(N)C(O)C(C)O1 (stereo not given) + Cc1[nH]c2ccc(F)cc2c1-c1nc2c3cccnc3c3ncccc3c2[nH]1", "%", 31.7),
]

Lab note: CC1COCCN1c1cc(C2(O)CC3CCC(C2)O3)c2cnn(-c3ccn[nH]3)c2n1 (stereo not given) + Cc1[nH]c2ccc(F)cc2c1-c1nc2c3cccnc3c3ncccc3c2[nH]1 gave viability, T/C of 97.1

Lab note: COc1ncnc(C2CC2)c1-c1ncc2cnn(Cc3ccc(-c4nc(C(F)(F)F)cn4C(C)C)cc3)c2n1 + CN(C)c1ccc(Nc2c3ccc(NC(=O)CCN4CCCC4)cc3nc3cc(NC(=O)CCN4CCCC4)ccc23)cc1 gave viability, T/C of 106

Lab note: COc1cccc2c1C(=O)c1c(O)c3c(c(O)c1C2=O)CC(O)(C(=O)CO)CC3OC1CC(N)C(O)C(C)O1 (stereo not given) + Cc1cnc(CNC(=O)c2c(=O)c3ccc(N4CCCN(C)CC4)nc3n3c2sc2ccccc23)cn1 gave viability, T/C of 37.3

Lab note: O=C(NO)c1cnc(N2CCN(S(=O)(=O)c3ccc4ccccc4c3)CC2)nc1 + Cc1cnc(CNC(=O)c2c(=O)c3ccc(N4CCCN(C)CC4)nc3n3c2sc2ccccc23)cn1 gave viability, T/C of 39.9

Lab note: CC(C)(O)C1CCC(Nc2ccc3ncc(-c4cccc(C(F)(F)F)c4)n3n2)CC1 (stereo not given) + Cc1cnc(CNC(=O)c2c(=O)c3ccc(N4CCCN(C)CC4)nc3n3c2sc2ccccc23)cn1 gave viability, T/C of 76.3
